# key: entry, value: permeability Pe
test system: PAMPA artificial membrane permeability, pH 7.4; assay: PAMPA permeability at pH 7.4 – biophysical, ADME assay (AID 624339); settings: at 100 µM; with 20% ACN; active compounds read high

GET /values?readout=permeability Pe&item= Cc1ccc(C(=O)n2c3ccccc3c3ccccc32)cc1
352 10-6 cm/s

Quick check: permeability Pe of CN(C)C1=C(Cl)C(=O)N(c2ccc(Cl)c(Cl)c2)C1=O ?
381 10-6 cm/s

Name the reported permeability Pe value associated with the compound CSc1nc(-c2ccc(C)cc2)nc(C(Cl)Cl)n1
154 10-6 cm/s

Name the recorded permeability Pe for Cc1ccc(C)c(NS(=O)(=O)c2cc(C(=O)Nc3ccccc3-c3ccccc3)ccc2Cl)c1 .
253 10-6 cm/s

Dear colleague, I am looking for the recorded permeability Pe of the following compound: Cc1ccccc1N1CCN(c2ncnc3c2cnn3Cc2ccc(Cl)cc2)CC1
1100 10-6 cm/s

Others:
Tell me the measured permeability Pe of COc1cccc(-c2nc(-c3ccc(NC(=O)Cc4ccccc4OC)cc3)no2)c1 , please.
863 10-6 cm/s

Entry COc1ccc(Sc2ccc(NC(=O)c3ccccc3Cl)cc2C#N)cc1 has what permeability Pe?
487 10-6 cm/s
